Assay: Acute toxicity, LD50 orally in mice
Assay type: in vivo
Conditions: mouse, in vivo, po
Hi! Could you tag entries with LD50 below 600 mg/kg as 1, and those at or above as 0? Much appreciated.

CN(C)CCCC(=O)OC1=C(C(=O)Nc2ccccn2)N(C)S(=O)(=O)c2ccsc21
1
CN(C)CCCC(=O)OC1=C(C(=O)Nc2ccccn2)N(C)S(=O)(=O)c2cc(Cl)sc21
1
CN(C)CCCC(=O)OC1=C(C(=O)Nc2ccccn2)N(C)S(=O)(=O)c2ccccc21
1

Is 600 mg/kg strictly greater than the compound's reported LD50? compound: CN(C)CCCC(=O)OC1=C(C(=O)Nc2nccs2)N(C)S(=O)(=O)c2ccccc21
0

---

Assay: Acute toxicity, LD50 orally in mice
Type: in vivo
Conditions: mouse, in vivo; oral, mice; read-out: LD50 orally in mice
Catalogue of LD50 readings, one per entry.
// return the numeric value with its unit appended

Cc1cnc(NC(=O)C2=C(OC(=O)CCCN(C)C)c3ccccc3S(=O)(=O)N2C)s1
590 mg/kg

Field: next compound
Please look up its LD50: CN1C(C(=O)Nc2ccccn2)=C(O)c2ccccc2S1(=O)=O [Piroxicam, reference compound]
360 mg/kg

---

body temperature of the rats, t = 0 min. for assorted compounds
Test system: Rats
Experiment: Antipyretic activity: rats given sterilized E. coli suspension as pyrogen
Format: in vivo
Conditions: 25 mg/kg transdermally 2 hours after E. coli pyrogen; t = 0 min.; in °C (unit assumed)
Please give the numeric answer without any surrounding text.

Before answering, review these 5 worked examples.
CN(C)CCCC(=O)OC1=C(C(=O)Nc2ccccn2)N(C)S(=O)(=O)c2ccsc21
37.54
CN(C)CCCC(=O)OC1=C(C(=O)Nc2ccccn2)N(C)S(=O)(=O)c2cc(Cl)sc21
37.55
CN(C)CCCC(=O)OC1=C(C(=O)Nc2ccccn2)N(C)S(=O)(=O)c2ccccc21
37.57
Cc1cnc(NC(=O)C2=C(OC(=O)CCCN(C)C)c3ccccc3S(=O)(=O)N2C)s1
37.57
CN(C)CCCC(=O)OC1=C(C(=O)Nc2nccs2)N(C)S(=O)(=O)c2ccccc21
37.50

// moving on: another record for body temperature of the rats, t = 0 min.
Sample CN(C)CCCC(=O)OC(Nc1ccccn1)=C1C(=O)c2sc(Cl)cc2S(=O)(=O)N1C.Cl — what was its body temperature of the rats, t = 0 min.?
37.53

---

Test system: mice
Experiment: Analgesic activity: acetic acid writhing test in mice
Format: in vivo
Conditions: 50 mg/kg transdermally 60 minutes before acetic acid solution intraperitoneally, control group 35.0
readout.type: No. of Writhings
Lab note: record the figure alone, no unit after it.

CN(C)CCCC(=O)OC1=C(C(=O)Nc2ccccn2)N(C)S(=O)(=O)c2ccccc21 [B]
15.6
CN(C)CCCC(=O)OC(Nc1ccccn1)=C1C(=O)c2sc(Cl)cc2S(=O)(=O)N1C.Cl [F]
17.5
Cc1cnc(NC(=O)C2=C(OC(=O)CCCN(C)C)c3ccccc3S(=O)(=O)N2C)s1 [H]
18.2

Requested read-out: No. of Writhings. Entry: CN(C)CCCC(=O)OC1=C(C(=O)Nc2ccccn2)N(C)S(=O)(=O)c2cc(Cl)sc21 [Compound D]
16.5

For CN(C)CCCC(=O)OC1=C(C(=O)Nc2nccs2)N(C)S(=O)(=O)c2ccccc21 [C] , what is its reported No. of Writhings?
15.7

Given the compound CN(C)CCCC(=O)OC1=C(C(=O)Nc2ccccn2)N(C)S(=O)(=O)c2ccsc21 [E] , what is its reported No. of Writhings?
16.9

---

# Cmax annotations
Assay: in vivo
Conditions: mouse, topical or ocular

CN(C)CCCC(=O)OC1=C(C(=O)Nc2ccccn2)N(C)S(=O)(=O)c2ccccc21
~500 µg/mL
CN(C)CCCC(=O)OC1=C(C(=O)Nc2ccccn2)N(C)S(=O)(=O)c2ccsc21
~500 µg/mL
CN(C)CCCC(=O)OC(Nc1ccccn1)=C1C(=O)c2sc(Cl)cc2S(=O)(=O)N1C
~500 µg/mL

Given CN1C(C(=O)Nc2ccccn2)=C(O)c2ccccc2S1(=O)=O [Piroxicam, reference compound] , state its recorded Cmax.
~5 µg/mL

What value of measured Cmax is listed for CN(C)CCCC(=O)OC1=C(C(=O)Nc2nccs2)N(C)S(=O)(=O)c2ccccc21 [C] ?
~500 µg/mL

Item under review: Cc1cnc(NC(=O)C2=C(OC(=O)CCCN(C)C)c3ccccc3S(=O)(=O)N2C)s1 [H] . Reported Cmax?
~500 µg/mL

I am curious: what Cmax value has been reported for CN(C)CCCC(=O)OC1=C(C(=O)Nc2ccccn2)N(C)S(=O)(=O)c2cc(Cl)sc21 ?
~500 µg/mL

---

Reported body temperature of the rats, t = 90 min. is given for each of the following compounds.
System: Rats
Test: Antipyretic activity: rats given sterilized E. coli suspension as pyrogen
Format: in vivo
Conditions: 25 mg/kg transdermally 2 hours after E. coli pyrogen; t = 90 min.; in °C (unit assumed)
// no unit string in output, number only

Sample records with body temperature of the rats, t = 90 min.:
Cc1cnc(NC(=O)C2=C(OC(=O)CCCN(C)C)c3ccccc3S(=O)(=O)N2C)s1
36.53
CN(C)CCCC(=O)OC(Nc1ccccn1)=C1C(=O)c2sc(Cl)cc2S(=O)(=O)N1C.Cl
36.57
CN(C)CCCC(=O)OC1=C(C(=O)Nc2ccccn2)N(C)S(=O)(=O)c2ccsc21
36.61
CN(C)CCCC(=O)OC1=C(C(=O)Nc2nccs2)N(C)S(=O)(=O)c2ccccc21
36.61
CN(C)CCCC(=O)OC1=C(C(=O)Nc2ccccn2)N(C)S(=O)(=O)c2ccccc21
36.51

Below: the item to evaluate.
Tell me the measured body temperature of the rats, t = 90 min. of CN(C)CCCC(=O)OC1=C(C(=O)Nc2ccccn2)N(C)S(=O)(=O)c2cc(Cl)sc21 , please.
36.66

---

Catalogue of compounds with associated Rate of Inhibition (%)
System: mice
Experiment: Analgesic activity: acetic acid writhing test in mice
Type: in vivo
Conditions: 50 mg/kg transdermally 60 minutes before acetic acid solution, based on the control group

Requested read-out: Rate of Inhibition (%). Entry: CN(C)CCCC(=O)OC1=C(C(=O)Nc2nccs2)N(C)S(=O)(=O)c2ccccc21
55%

Data request, read-out Rate of Inhibition (%), for CN(C)CCCC(=O)OC(Nc1ccccn1)=C1C(=O)c2sc(Cl)cc2S(=O)(=O)N1C.Cl
50%

---

Tested on: mice
Assay: Analgesic activity: acetic acid writhing test in mice
Type: in vivo
Conditions: 50 mg/kg transdermally 60 minutes before acetic acid solution, based on the control group
readout.type: Rate of Inhibition (%)
Write it as a number; the unit % goes unstated.

For orientation, consider the following solved cases.
Cc1cnc(NC(=O)C2=C(OC(=O)CCCN(C)C)c3ccccc3S(=O)(=O)N2C)s1
48
CN(C)CCCC(=O)OC1=C(C(=O)Nc2ccccn2)N(C)S(=O)(=O)c2ccsc21
53
CN(C)CCCC(=O)OC1=C(C(=O)Nc2ccccn2)N(C)S(=O)(=O)c2cc(Cl)sc21
53

Now turn to the next compound.
GET /values?readout=Rate of Inhibition (%)&item= CN(C)CCCC(=O)OC1=C(C(=O)Nc2ccccn2)N(C)S(=O)(=O)c2ccccc21
55
